Target: human V1a receptor (Homo sapiens, UniProt P37288)
Construct: expressed in transfected cells; host or cells: HEK293 cells, transiently transfected; membranes prepared
Sequence (P37288 whole entry): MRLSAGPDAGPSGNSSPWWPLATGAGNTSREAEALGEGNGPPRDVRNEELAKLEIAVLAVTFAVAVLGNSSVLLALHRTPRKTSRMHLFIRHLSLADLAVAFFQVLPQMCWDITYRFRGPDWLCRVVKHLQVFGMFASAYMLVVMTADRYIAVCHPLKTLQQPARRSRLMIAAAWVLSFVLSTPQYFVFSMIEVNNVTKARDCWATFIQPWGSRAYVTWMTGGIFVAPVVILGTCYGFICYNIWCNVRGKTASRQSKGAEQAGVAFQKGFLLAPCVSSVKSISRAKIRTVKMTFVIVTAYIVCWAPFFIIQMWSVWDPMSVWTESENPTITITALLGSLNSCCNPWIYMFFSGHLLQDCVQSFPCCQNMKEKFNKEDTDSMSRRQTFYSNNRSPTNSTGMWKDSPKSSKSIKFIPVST
Test: human V1a receptor binding (3H-Vasopressin SPA, HEK293 membranes)
Details: membranes of HEK293 cells transiently transfected with human V1a receptor, Ki by Cheng-Prussoff, read-out: pKi (hV1a) (converted)
ASSAY ENDPOINT: Ki (nM)
# unit: nM | format: bare number

Fill in: Ki of CC(C)(C)OC(=O)N1Cc2cc(Cl)ccc2-n2c(nnc2[C@H]2CC[C@H](c3nccs3)CC2)C1 [Example 13] is ___
1

###

Molecular target: human V1a receptor (Homo sapiens)
Construct: expressed in transfected cells; host or cells: HEK293 cells, transiently transfected; membranes prepared
Experiment: human V1a receptor binding (3H-Vasopressin SPA, HEK293 membranes)
Details: membranes of HEK293 cells transiently transfected with human V1a receptor, Ki by Cheng-Prussoff, read-out: pKi (hV1a) (converted)
Counter-ions that a name gives are not always drawn.
ASSAY ENDPOINT: Ki (nM)
# unit: nM | format: bare number

Take a look at these entries with their results.
Fill in: Ki of Cc1onc([C@H]2CC[C@H](c3nnc4n3-c3ccc(Cl)cc3CNC4)CC2)c1Cl [Example 43] is ___
5.89

Item: CC(C)c1nc([C@H]2CC[C@@H](c3nnc4n3-c3ccc(Cl)cc3CNC4)CC2)no1 [Example 95, hydrochloride]
2950

Item: Cc1nc([C@H]2CC[C@H](c3nnc4n3-c3ccc(Cl)cc3CNC4)CC2)sc1C [Example 105]
21.9

***
Fill in: Ki of Cc1nc([C@H]2CC[C@H](c3nnc4n3-c3ccc(Cl)cc3CN(S(C)(=O)=O)C4)CC2)no1 [Example 81] is ___
4.27

Item: Cc1nc([C@H]2CC[C@H](c3nnc4n3-c3ccc(Cl)cc3CN(C)C4)CC2)oc1Cl [Example 100]
1.1

Item: Clc1ccc2c(c1)CNCc1nnc([C@H]3CC[C@H](c4ncco4)CC3)n1-2 [Example 2]
53.7

Item: CC(C)(C)OC(=O)N1Cc2cc(Cl)ccc2-n2c(nnc2[C@H]2CC[C@H](c3onc4c3CCCC4)CC2)C1 [Example 60]
15.5

Item: Cc1nc([C@H]2CC[C@H](c3nnc4n3-c3ccc(Cl)cc3CN(C(=O)OC(C)(C)C)C4)CC2)sc1Cl [Example 101]
1.29

###

Ki reference
Target: human V1a receptor (Homo sapiens, UniProt P37288)
Construct: expressed in transfected cells; host or cells: HEK293 cells, transiently transfected; membranes prepared
Assay: human V1a receptor binding (3H-Vasopressin SPA, HEK293 membranes)
Settings: membranes of HEK293 cells transiently transfected with human V1a receptor, Ki by Cheng-Prussoff, read-out: pKi (hV1a) (converted)
Structures can show the parent of a compound that is named as a salt.

Param readout = Ki; param system = human V1a receptor (Homo sapiens, UniProt P37288); param query = Cc1cc([C@H]2CC[C@H](c3nnc4n3-c3ccc(Cl)cc3CNC4)CC2)no1 [Example 23, hydrochloride] ; response: value
6.46 nM

Item: CCN1Cc2cc(Cl)ccc2-n2c(nnc2[C@H]2CC[C@H](c3cc(C)on3)CC2)C1 [Example 25]
1.74 nM

Item: CC(C)c1nc([C@H]2CC[C@H](c3nnc4n3-c3ccc(Cl)cc3CNC4)CC2)no1 [Example 93, hydrochloride]
263 nM

***
Param readout = Ki; param system = human V1a receptor (Homo sapiens, UniProt P37288); param query = Cc1coc([C@H]2CC[C@H](c3nnc4n3-c3ccc(Cl)cc3CN(C(=O)OC(C)(C)C)C4)CC2)n1 [Example 4] ; response: value
0.398 nM

Item: Cc1csc([C@H]2CC[C@H](c3nnc4n3-c3ccc(Cl)cc3CN(C)C4)CC2)n1 [Example 18]
1.7 nM

Item: CCc1nc([C@H]2CC[C@H](c3nnc4n3-c3ccc(Cl)cc3CN(C)C4)CC2)no1 [Example 88]
14.5 nM

###

Molecular target: human V1a receptor (Homo sapiens)
Construct: expressed in transfected cells; host or cells: HEK293 cells, transiently transfected; membranes prepared
Experiment: human V1a receptor binding (3H-Vasopressin SPA, HEK293 membranes)
Details: membranes of HEK293 cells transiently transfected with human V1a receptor, Ki by Cheng-Prussoff, read-out: pKi (hV1a) (converted)
Counter-ions that a name gives are not always drawn.
Ki reference

Take a look at these entries with their results.
Param readout = Ki; param system = human V1a receptor (Homo sapiens); param query = Cc1cc([C@H]2CC[C@H](c3nnc4n3-c3ccc(Cl)cc3CN(C)C4)CC2)no1 [Example 24] ; response: value
0.0012 µM

Item: CC(C)c1nc([C@H]2CC[C@H](c3nnc4n3-c3ccc(Cl)cc3CN(C)C4)CC2)no1 [Example 94]
0.0195 µM

Item: Cc1nn([C@H]2CC[C@H](c3nnc4n3-c3ccc(Cl)cc3CN(C(=O)OC(C)(C)C)C4)CC2)c(C)c1C [Example 118]
0.000832 µM

Item: Cc1nsc([C@H]2CC[C@H](c3nnc4n3-c3ccc(Cl)cc3CN(C)C4)CC2)n1 [Example 71]
0.0151 µM

Item: CCc1cc([C@H]2CC[C@@H](c3nnc4n3-c3ccc(Cl)cc3CNC4)CC2)no1 [Example 50, hydrochloride]
0.182 µM

Below: the item to evaluate.
Param readout = Ki; param system = human V1a receptor (Homo sapiens); param query = CN1Cc2cc(Cl)ccc2-n2c(nnc2[C@H]2CC[C@H](c3onc4c3CCCC4)CC2)C1 [Example 62] ; response: value
0.00631 µM

###

Ki reference
Target: human V1a receptor (Homo sapiens, UniProt P37288)
Construct: expressed in transfected cells; host or cells: HEK293 cells, transiently transfected; membranes prepared
Test: human V1a receptor binding (3H-Vasopressin SPA, HEK293 membranes)
Details: membranes of HEK293 cells transiently transfected with human V1a receptor, Ki by Cheng-Prussoff, read-out: pKi (hV1a) (converted)
Counter-ions that a name gives are not always drawn.
# unit: nM | format: bare number

Take a look at these entries with their results.
Fill in: Ki of Cc1onc([C@H]2CC[C@H](c3nnc4n3-c3ccc(Cl)cc3CN(C)C4)CC2)c1C [Example 41] is ___
0.501

Item: CCc1cc([C@H]2CC[C@H](c3nnc4n3-c3ccc(Cl)cc3CNC4)CC2)no1 [Example 52, hydrochloride]
6.31

Item: CN1Cc2cc(Cl)ccc2-n2c(nnc2[C@H]2CC[C@@H](c3noc4c3CCCC4)CC2)C1 [Example 59]
8.13

Item: CCc1nc([C@H]2CC[C@@H](c3nnc4n3-c3ccc(Cl)cc3CN(C)C4)CC2)no1 [Example 90]
295

***
Fill in: Ki of CCc1cc([C@H]2CC[C@H](c3nnc4n3-c3ccc(Cl)cc3CN(C(=O)OC(C)(C)C)C4)CC2)no1 [Example 49] is ___
4.07

Item: Cc1nc([C@H]2CC[C@H](c3nnc4n3-c3ccc(Cl)cc3CN(C(C)C)C4)CC2)no1 [Example 76]
10

Item: Cc1nn([C@H]2CC[C@H](c3nnc4n3-c3ccc(Cl)cc3CNC4)CC2)c(C)c1C [Example 119]
2.19

Item: Cc1nc([C@H]2CC[C@@H](c3nnc4n3-c3ccc(Cl)cc3CNC4)CC2)no1 [Example 83, hydrochloride]
617

Item: Cc1nc([C@H]2CC[C@H](c3nnc4n3-c3ccc(Cl)cc3CN(C)C4)CC2)sc1Cl [Example 103]
1.58

Item: CCc1nc([C@H]2CC[C@@H](c3nnc4n3-c3ccc(Cl)cc3CN(C(=O)OC(C)(C)C)C4)CC2)no1 [Example 85]
40.7

Item: Cc1nc([C@H]2CC[C@H](c3nnc4n3-c3ccc(Cl)cc3CN(CC(F)F)C4)CC2)no1 [Example 79]
3.39

Item: Cc1nc([C@H]2CC[C@H](c3nnc4n3-c3ccc(Cl)cc3CN(C)C4)CC2)cs1 [Example 21]
1.7

Item: CCc1nc([C@H]2CC[C@H](c3nnc4n3-c3ccc(Cl)cc3CNC4)CC2)no1 [Example 87, hydrochloride]
145

Item: Clc1ccc2c(c1)CNCc1nnc([C@H]3CC[C@H](c4nccs4)CC3)n1-2 [Example 14]
28.2
